Taken from paper PMC7819943.

# measurement.target: OsWRKY34 (Oryza sativa, UniProt Q0JBA9 1-250)
# Sequence (Q0JBA9 entry or part of it): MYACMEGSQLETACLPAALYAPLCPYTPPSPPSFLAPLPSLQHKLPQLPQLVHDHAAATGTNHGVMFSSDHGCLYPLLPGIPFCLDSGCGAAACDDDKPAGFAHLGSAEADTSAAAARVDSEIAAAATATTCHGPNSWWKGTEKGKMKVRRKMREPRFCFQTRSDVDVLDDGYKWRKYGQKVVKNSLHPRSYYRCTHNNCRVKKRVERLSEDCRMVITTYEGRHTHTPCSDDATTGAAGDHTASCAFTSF
# experimental.details: protein-binding microarray (RPBM); PBS, 2% BSA, 51.3 ng/ul salmon testes DNA, 50 uM zinc acetate, 200 nM TF, 25 C, 1 h; high values mean tight binding
# applied.conditions: protein: recombinant; tags: N-terminal polyhistidine and DsRed monomer fusion (pET32a); label: CyDye5-dUTP incorporated in the synthesized complementary strand; 3' TTTTT single-stranded linker to array surface; dsDNA, one strand shown
In all, about 68,000 sequences were measured (“fluorescence intensity (a.u.)”: median about 9,100, highest 2% from about 16,000 on). The list comes from a sample in which the highest values are over-represented; it also holds close analogues and randomly drawn sequences.
Parameter binding signal: see the listing below.

1) TGTTGGTGGTGAGGTGTGAGGTGAGGTGGGGTGGTGTGGCCGGAGTCACCTAGTGCAG : 10100 fluorescence intensity (a.u.)
2) ATCTCCCGCGGTTTCGATTTGGGTTTATTTGGGCGGTGGGCGGAGTCACCTAGTGCAG : 18800 fluorescence intensity (a.u.)

Please give the measured binding signal for this sequence: `TGTCGGTGTCGGTGGGCGGGGATTCGCGGTAGTGGTGGAACGGAGTCACCTAGTGCAG`
19700 fluorescence intensity (a.u.)

Suppose we examine the sequence `CCTCGCCGTCGCCGGTCCTCGTCTCCTCCTCTATCTATATCGGAGTCACCTAGTGCAG` ; what binding signal value has been reported?
8600 fluorescence intensity (a.u.)

Can you share its binding signal? I mean this sequence: `CCGTTTCGAAATGTTTACACCGTTGACTTTTTAGCACATGCGGAGTCACCTAGTGCAG`
30100 fluorescence intensity (a.u.)

---

Each record here notes measured binding signal.
# measurement.target: OsWRKY34 (Oryza sativa, UniProt Q0JBA9 1-250)
# experimental.details: protein-binding microarray (RPBM); PBS, 2% BSA, 51.3 ng/ul salmon testes DNA, 50 uM zinc acetate, 200 nM TF, 25 C, 1 h; high values mean tight binding
# applied.conditions: protein: recombinant; tags: N-terminal polyhistidine and DsRed monomer fusion (pET32a); label: CyDye5-dUTP incorporated in the synthesized complementary strand; 3' TTTTT single-stranded linker to array surface; dsDNA, one strand shown
Whole data set: some 68,000 sequences, median “fluorescence intensity (a.u.)” near 9,100, cut for the highest 2% near 16,000. Many of the other results were omitted from the sample, so the highest values are more common in it than they were.

Example results:
1. GGTTGGTTTCTTTCGTTGGATTGTTTCGAGCCAGGGTTTCCGGAGTCACCTAGTGCAG : 16900 fluorescence intensity (a.u.)
2. AATTGCTGTTGACCTGTTGTTGTGCTCCAACATCCAAACACGGAGTCACCTAGTGCAG : 8290 fluorescence intensity (a.u.)
3. CGGTGGTGGTGGATGCTGGCGCTGGCGGTGGGCGCGAGCTCGGAGTCACCTAGTGCAG : 10100 fluorescence intensity (a.u.)

Look at this sequence and give its reported binding signal. `TTTTCTTTCCTTTATTATTTTCTTTATCCTTTTTTTCTCCCGGAGTCACCTAGTGCAG`
9250 fluorescence intensity (a.u.)

I'd like to know its binding signal. The sequence in question is `TTGGATTGGTTTCTTTCTGCTCTGTTGCAGCTCCGTTGTCCGGAGTCACCTAGTGCAG`
9560 fluorescence intensity (a.u.)

Request the reported binding signal associated with `TGAGTTTGTTTGCTGGGTTGGTTCGTGCGTTTTCTTGGATCGGAGTCACCTAGTGCAG`
18800 fluorescence intensity (a.u.)

Name the recorded binding signal for `CTATATCGCACGTACTCCGGTACCAACGATCCTATACCATCGGAGTCACCTAGTGCAG` .
9910 fluorescence intensity (a.u.)

// query binding signal value for entry `TCTTAAGCGTGTTCATGGGTCTTGTTATGCTCAAGTCAAACGGAGTCACCTAGTGCAG`
8950 fluorescence intensity (a.u.)

Bench note: what binding signal did `AAAGTGCCGTATTTTTGTGTTTCTGTTGTAGTGGTAATTACGGAGTCACCTAGTGCAG` show?
12000 fluorescence intensity (a.u.)

Field request: binding signal | item: `CCAAAAACACTCACTCGGCCCACATCACGCCACCACCCCGCGGAGTCACCTAGTGCAG`
9750 fluorescence intensity (a.u.)

So what does the record say about binding signal for `CGACGGGAGAGGAGGAGCCGGTGGGCGGGGTGGGGCCCACCGGAGTCACCTAGTGCAG` ?
11000 fluorescence intensity (a.u.)

# get_value(readout='binding signal', item= `CTTGGTGGTTCTTTTCTTCTTCTAGATTTATCCCCATTTTCGGAGTCACCTAGTGCAG` )
16700 fluorescence intensity (a.u.)

Which value of binding signal has been reported for `ACAAATCCTGGTCATTTCTTGACCGTATGAATTCTAGAAACGGAGTCACCTAGTGCAG` in the records?
9650 fluorescence intensity (a.u.)

Please give the measured binding signal for this sequence: `CCATCACCACCTCCCGATCCGCGCGCTTTCTCTCCCGCGCCGGAGTCACCTAGTGCAG`
9090 fluorescence intensity (a.u.)

Any idea what binding signal was measured for `AGGGTTTTTTTTGTCACTTTCGTTGTCAGTTTCTTTTTTCCGGAGTCACCTAGTGCAG` ?
14100 fluorescence intensity (a.u.)

Fill in: binding signal of `AGAATGTTTGCTCAAAGTATGTTTTTGTCATCTGTTTTTCCGGAGTCACCTAGTGCAG` is ___
8800 fluorescence intensity (a.u.)

Field request: binding signal | item: `AGCCTACCAGCTGCACCGCAAATGCCGTGTACTGCTTTCTCGGAGTCACCTAGTGCAG`
8340 fluorescence intensity (a.u.)

Fill blank: measured binding signal of the sequence `AGTTACTGAGTTAGACGTCTCAAGCTGTGTCGTGGAATAACGGAGTCACCTAGTGCAG` is ____.
8700 fluorescence intensity (a.u.)

Looking for the measured binding signal of `TTAGTATAGCTGTATTCTTCCCAACTTCCTATTTTCCTCTCGGAGTCACCTAGTGCAG` , can you help?
8540 fluorescence intensity (a.u.)
